Target: T1, gp100 (human)
T1 construct: cell surface;cell surface complex; also called HLA-A2 / gp100 peptide complex on T2 cells
Assay: flow cytometry on peptide-pulsed T2 cells, scFv 100 nM;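 also: scFv binding read as gMFI and normalized to the level of HLA/peptide complex displayed on T2 cells, with homologous 9-mer peptides used to probe specificity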
OBSERVABLE: standardized gMFI
// print number alone

Guide cases for standardized gMFI, answers given:
INSERT INTO results (binder, assay_result) VALUES
  ('NYA-2048 (scFv, also called NYA-2048 tag adduct) scFv: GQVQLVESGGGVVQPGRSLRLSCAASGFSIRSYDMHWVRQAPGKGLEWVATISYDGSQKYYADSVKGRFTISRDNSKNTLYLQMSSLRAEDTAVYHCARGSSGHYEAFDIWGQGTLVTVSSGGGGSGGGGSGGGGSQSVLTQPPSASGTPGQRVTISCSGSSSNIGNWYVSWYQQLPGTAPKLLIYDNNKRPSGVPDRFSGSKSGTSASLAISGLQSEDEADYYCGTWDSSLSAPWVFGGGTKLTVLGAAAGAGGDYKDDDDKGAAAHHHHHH', 0.34),
  ('NYA-1143 (scFv) scFv: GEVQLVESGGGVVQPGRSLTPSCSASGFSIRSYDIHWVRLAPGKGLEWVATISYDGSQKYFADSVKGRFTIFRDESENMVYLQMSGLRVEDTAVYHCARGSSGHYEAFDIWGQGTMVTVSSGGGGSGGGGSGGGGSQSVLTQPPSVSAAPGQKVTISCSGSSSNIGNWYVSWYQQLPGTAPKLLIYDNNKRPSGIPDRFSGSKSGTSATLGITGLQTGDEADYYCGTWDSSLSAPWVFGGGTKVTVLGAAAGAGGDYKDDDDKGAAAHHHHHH', 0.3);

Now examine the next entry.
standardized gMFI for NYA-0001 (scFv, also called NYA-0001 tag adduct; NY-R119 expressed in a cultured mammalian cell) scFv: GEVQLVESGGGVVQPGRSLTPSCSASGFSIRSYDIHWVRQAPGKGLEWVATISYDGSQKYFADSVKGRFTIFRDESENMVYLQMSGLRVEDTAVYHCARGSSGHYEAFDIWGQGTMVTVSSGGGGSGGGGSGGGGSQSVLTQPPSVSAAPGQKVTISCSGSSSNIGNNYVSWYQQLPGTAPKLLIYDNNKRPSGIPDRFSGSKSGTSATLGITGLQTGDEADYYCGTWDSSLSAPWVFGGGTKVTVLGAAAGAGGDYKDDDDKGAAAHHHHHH ?
0.31

# credit: patent US20230348616A1
